Cited source: patent US20250313626A1

# measured target: T1, Cynomolgus macaques CD200R1 isoform a on CHOK1 cells (CHOK1/cynoCD200R1a) (Cynomolgus macaques)
# T1 chain: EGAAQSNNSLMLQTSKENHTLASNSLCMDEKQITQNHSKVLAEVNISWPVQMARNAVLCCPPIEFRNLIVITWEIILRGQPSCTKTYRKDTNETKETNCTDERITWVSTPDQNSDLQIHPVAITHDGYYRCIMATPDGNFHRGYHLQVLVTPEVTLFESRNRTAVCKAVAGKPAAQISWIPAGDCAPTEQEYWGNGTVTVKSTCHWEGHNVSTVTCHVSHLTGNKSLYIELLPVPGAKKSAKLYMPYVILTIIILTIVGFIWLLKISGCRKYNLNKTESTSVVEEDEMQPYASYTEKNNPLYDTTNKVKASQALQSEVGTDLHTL
# test method notes: flow cytometry, CHOK1/cynoCD200R1a cells (APC-A Mean); table beside the curves

binder	MFI (MAX)
PR002906 (antibody, V domains shown, also called recombinant IgG1 antibody of huDX182) VH: QVQLQESGPGLVKPSETLSLTCTVSGYTITSGYDWSWIRQPPGKGLEWIGYINYGGSTNYKPSLGSRVTISVDTSKNQFSLKLSSVTAADTAVYYCARYNEYKSYIYDWYFDFWGQGTLVTVSS VL: DIQMTQSPSSLSASVGDRVTITCKASKNIRSYLAWYQQKPGKAPKLLIYSGSTLHSGVPSRFSGSGSGTDFTLTISSLQPEDFATYYCQQHHEYPLTFGQGTKVEIKR	23900
PR007630 (antibody, human IgG1, kappa, V domains shown, PTM variant of PR006839 (human IgG1)) VH: QVQLVESGGGVVQPGRSLRLSCAASGFTFSSYGFHWVRQAPGKGLEWLGIIWSDASNKYYADSVKGRFTISRDNSKNTLYLQMNSLRAEDTAVYYCARDRIVGEGFDYWGQGTLVTVSS VL: DIVMTQSPLSLPVTPGEPASISCRSSQSLLHRSGYNYLDWYLQKPGQSPQLLIYLGSYRASGVPDRFSGSGSGTDFTLKISRVEAEDVGVYYCMQGLQTMYTFGQGTKLEIKR	58600
PR007631 (antibody, human IgG1, kappa, V domains shown, PTM variant of PR006839 (human IgG1)) VH: QVQLVESGGGVVQPGRSLRLSCAASGFTFSSYGFHWVRQAPGKGLEWLGLIWSDARHKDYADSVKGRFTISRDNSKNTLYLQMNSLRAEDTAVYYCARDRIVGEGFDYWGQGTLVTVSS VL: DIVMTQSPLSLPVTPGEPASISCRSSQSLLHRSGYNYLDWYLQKPGQSPQLLIYLGSYRWSGVPDRFSGSGSGTDFTLKISRVEAEDVGVYYCMQGLQTMYTFGQGTKLEIKR	51800
